Cited source for all entries: PubChem BioAssay (NCI)

Test system: COLO 205 colon
Assay: NCI-60 one-dose screen, 48 h (100 = growth as untreated, 0 = no growth, -100 = all killed)
Settings: 10 µM unless noted
About 83,000 compounds went through this panel and 20% of them were active in at least one assay; those are over-represented in the sample as a whole. The source made the active and inactive calls. The calls were made as follows: active = growth percent below 10; inactive = the rest.
Recorded growth by entry

Check out these entries, answers already filled in.
compound: S=c1[nH]nc2sc3ccccc3n12
growth: 104% (inactive)
//
compound: O=C(Nc1nc(-c2ccccc2)cs1)c1cc(O)c(O)c(O)c1
growth: 84.5% (inactive)
//
compound: O=C(CCc1nnc(Cn2ccnc2)o1)c1nc2ccccc2[nH]1
growth: 119% (inactive)
//
compound: O=C(Nc1ccncc1)C(=O)c1cn(S(=O)(=O)c2cccc(F)c2)c2ccccc12
growth: 106% (inactive)
//
compound: COc1cc(/C=C2\CCC/C(=C\c3ccc(OCC4CO4)c(OC)c3)C2=O)ccc1OCC1CO1 (stereo not drawn)
growth: 33.8% (inactive)

Find the recorded growth belonging to `O=[N+]([O-])c1ccc(Oc2cccc(C(F)(F)F)c2)c([N+](=O)[O-])c1` and report it.
2.36% (active)

What would you report for `CC(c1cc(Cl)ccc1O)c1cc(Cl)ccc1O` ?
41.2% (inactive)

Moving on to the next compound: `Cn1cnc([N+](=O)[O-])c1S(=O)(=O)Oc1ccc(Cl)cc1`
-90% (active)

Now give it for `O=C(O)C(=O)O` too.
108% (inactive)

Next compound up: `COc1ccccc1[C@H]1c2[nH]c3ccccc3c2C[C@H]2C(=O)N(CCCCCCC(=O)NO)CC(=O)N12`
26.9% (inactive)

// next record `CCC1=C(c2ccc(OC)cc2)C(C)(C)Oc2c1ccc(O)c2CN1CCCC1`
77.1% (inactive)

Entry `CCCc1cc(=O)n2c(C(=O)Nc3ccccc3OC)c(C(=O)Nc3ccc(F)cc3)sc2n1` please
72.5% [30 µM] (inactive)

Request: `O=[P@@]1(c2ccccc2)O[C@H](COCc2ccccc2)[C@@H](OCc2ccccc2)[C@H](OCc2ccccc2)[C@H]1NCc1ccccc1`
-57.2% (active)

---

System: DU-145 prostate
Test: NCI-60 one-dose screen, 48 h (100 = growth as untreated, 0 = no growth, -100 = all killed)
Conditions: 10 µM unless noted
Compounds without any hit were thinned out: in the full panel of roughly 83,000, 20% have a hit.
Measured growth values are reported for all entries that follow.
Report the figure in % without appending any unit label.

Here's what some known entries look like.
testSmiles: COc1ccc(/C=C2\NC(=S)NC2=O)cc1
valueUnit: %
assayValue: 118
//
testSmiles: CCCCCCCCCCC[C@@H](C[C@H]1OC(=O)[C@H]1CCCCCC)OC(=O)[C@@H](CC(C)C)NC=O
valueUnit: %
assayValue: 92.2
//
testSmiles: CCOC(=O)c1ccccc1OC(=O)NNc1ccccc1
valueUnit: %
assayValue: 82

Hi! What's the reported growth for `COc1cccc(-c2nnc(N)o2)c1` on DU-145 prostate?
107

---

Test system: HCT-15 colon
Assay: NCI-60 one-dose screen, 48 h (100 = growth as untreated, 0 = no growth, -100 = all killed)
Settings: 10 µM unless noted
Protocol: Growth inhibition of the HCT-15 human tumor cell line is measured as a screen for anti-cancer activity. Cells are grown in 96 well plates and exposed to the test compound for 48 hours. Compounds are tested at a single concentration, which is 10^-5 M for most compounds. The reported endpoint is percent growth (GI% or GIPRCNT), where numbers from 0 - 100% represent growth inhibition, and numbers from -100% - 0 represent cell death. For example, a value of 40 represents 60% growth inhibition. […]
This is part of a sample that, as a whole, favours compounds with a hit. Of some 83,000 tested, about 20% had one in any assay.
Labelling field: enter Y if recorded growth is less than 70%. Enter N if it equals or exceeds that cut-off.

Example entries begin here.
compound: Fc1ccc(-c2nc(Nc3ccc(-c4nc5ccccc5[nH]4)cc3)nc(N3CCOCC3)n2)cc1
answerLabel: Y

compound: CCOC(=O)c1c(C)nc(C)c(C(=O)OCC)c1-c1cccnc1
answerLabel: N

# TODO verify growth < 70% strictly for this compound: `C=CCCCCCCCCC(=O)[O][Sn]([CH2]CCC)([CH2]CCC)[CH2]CCC`
Y

Would you mind doing Nc1ccc(C2=NN(c3ccccc3)C(c3ccc(Cl)cc3)C2)cc1 (configuration not stated) as well?
Y

Another compound to check: `N#CCCN(CCO)c1ccccc1`
N

Same again, this time with `Cn1cc(-c2csc(-c3cn(C)c4ncccc34)n2)c2cc(F)cnc21`
Y
